target: RSV prefusion F (preF), DS-Cav1 (Respiratory Syncytial Virus); assay: BLI, IgG on anti-human IgG sensor, 100 nM antigen
pKd: −log10 of the molar value.
The following binders are listed with their measured pKd values.

# Binder, pKd
records = [
    ("ADI-41206 (antibody, V domains shown) VH: EVQLLESGGGLVKPGGSLRLSCAGSGFSFSSYSMNWVRQAPEKGLEWVSSISASSSFINYADSVKGRFIISRDNAKNSLFLQMDSLRAEDTAVYYCARDGVHPGGYIFGGYIDSWGQGTLVTVSS VL: QSVLTQPPSVSGAPGQRVTISCTGSSSNIGAGYDVHWFRQLPGTAPKLLIYGNNNRPSGVPDRFSGSKSGSSASLIITGLQAQDEATYYCQSYDSSLSGYVFGTGTKLTVL", 9.39),
    ("ADI-41214 (antibody, V domains shown) VH: EVQLVESGGGLVQPGGSLRLSCAASGFTFSSYWMSWVRQAPGKGLEWVATIKQDGSEKYSVDSVKGRFTISRDNPKKSLYLQMNSLRAEDTAVYYCARDYRVEYYHSSDKLKRYYYYGMDVWGQGTTVTVSS VL: DIRVTQSPSSLSASVGDRVTITCRASQSISTYLNWYQQKPGKAPKFLIYAASSLESGVPSRFSGSGSGTDFSLTISSLQPEDFATYYCQQSYSIPITFGQGTRLEIK", 8.24),
    ("ADI-41154 (antibody, V domains shown) VH: QVQLQQWGAGLSKPSETLSVTCAVYGGSLSGHYWSWFRQPPGKGLEWIGEIDHSGSTTYNPSLKSRVTISVDTSKNQFSLKLTSVTAADTAMYYCARATRYNYGYTFDYWGQGTLVTVSS VL: DIPLTQSPSSLSASVGDRVTITCRASQIISSYLNWYQQKPGKAPKLLIYAASTLQSGVPSRFSGSRSGTDFTLTISSLQPEDFASYYCQQSYIIPFTFGPGTKVEIK", 8.33),
    ("ADI-41165 (antibody, V domains shown) VH: EVQLVETGAEVKKPGESLKISCKGSGYSFTSYWIGWVRQMPGKGLEWMGIIYPGDSDTRYSPSFQGQVTISADKSISTAYLQWSSLKASDTAMYYCARRYDYIDIWGQGTMVTVSS VL: DIRVTQSPSSLSASVGDRVTITCQASQDISNYLNWYQQKPGKAPKLLIYDASNLETGVPSRFSGSGSGTDFTFTISSLQPEDIATYYCQQYDNLAHITFGPGTKVEIK", 8.62),
    ("ADI-41163 (antibody, V domains shown) VH: QVQLVQSGGGVVQPGRSLRLSCAASGFPFHSYAMHWVRQAPGKGLEWVAVIWYEGSEKHYADSVQGRFTISRDNSKNMLYLQMNNLRVADTAVYYCARRGAWGFDIWGQGTTVTVSS VL: DIVMTQTPLSLPVTPGEPASISCRSSQSVLHSTGYNSLDWYLQKPGQSPQLLIFLGSNRASGVPDRFSGSGSGTDFTLKISRVEAEDVGVYYCMQGLQTPYTFGQGTKVEIK", 8.33),
]
